# assay: Determination of aqueous solubility (UHPLC, caffeine internal standard)
# Assay type: physicochemical
# condition-set: pH 7, aqueous buffer, thermodynamic from solid
# Protocol: A standard stock solution of each analyte in MeOH at a concentration of 1.0 mg/mL was prepared. All analytes were completely soluble in MeOH. […] These samples were analyzed by UHPLC [Kinetex® EVO C18; 1.7 µm; 100 Å, 50 mm x 2.1 mm; Phenomenex; solvent A: H2O + 0.1 % HCOOH, solvent B: MeCN + 0.1 % HCOOH; 0.4 mL/min; 1.0 µL injection volume, LC time program (min - % B): 0.50 min - 5 %, 3.50 min - 95 %, 3.55 min - 100 %; UV detection at λ = 270 nm]. […]
measurement-name: solubility at 5 h (µg/mL)
Provide the reading as a plain figure in µg/mL.

Given CCc1c(Cl)c(O)c(Cl)c(O)c1C(=O)O[C@H]1[C@H](O)[C@H](OC)[C@H](OCC2=CC=CC[C@H](O)C(C)=C[C@H](CC)[C@@H](O[C@@H]3OC(C)(C)[C@@H](OC(=O)C(C)C)[C@H](O)[C@@H]3O)C(C)=CC(C)=CC[C@@H]([C@@H](C)O)OC2=O)O[C@@H]1C [Fidaxomicin, reference compound] , state its recorded solubility at 5 h.
84

Reference for the values: patent EP3508492A1
